These data points were gathered from paper PMC8634379.

assay-target: human sEH (hsEH) (Homo sapiens)
Sequence (P34913 1-555): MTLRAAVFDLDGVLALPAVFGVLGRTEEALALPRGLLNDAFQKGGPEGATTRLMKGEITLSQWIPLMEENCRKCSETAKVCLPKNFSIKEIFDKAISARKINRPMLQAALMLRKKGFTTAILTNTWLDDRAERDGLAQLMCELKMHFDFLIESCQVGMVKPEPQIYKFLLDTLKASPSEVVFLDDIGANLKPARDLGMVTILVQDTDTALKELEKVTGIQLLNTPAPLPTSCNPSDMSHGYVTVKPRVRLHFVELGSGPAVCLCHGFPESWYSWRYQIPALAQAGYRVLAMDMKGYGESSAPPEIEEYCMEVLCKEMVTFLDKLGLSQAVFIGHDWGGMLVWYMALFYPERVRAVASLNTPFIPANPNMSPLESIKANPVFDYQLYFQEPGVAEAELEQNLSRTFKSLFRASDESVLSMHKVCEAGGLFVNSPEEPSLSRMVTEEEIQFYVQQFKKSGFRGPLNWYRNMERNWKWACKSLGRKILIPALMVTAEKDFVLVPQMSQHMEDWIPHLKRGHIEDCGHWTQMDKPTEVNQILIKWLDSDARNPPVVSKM
assay-comment: sEH inhibition, fluorescent-based assay (CMNPC substrate)
Format: biochemical
recorded-conditions: purified recombinant enzyme, average of three replicates
pIC50: −log10 of the molar value.
pIC50 by entry:

# chemical-structure, assay-target, value-qualifier, pIC50
data = [
    ("CC(=O)N1CCC(NC(=O)NC23CC4CC(C)(CC(C2)c2ccccc24)O3)CC1", "human sEH (hsEH) (Homo sapiens)", "=", 6.03),
    ("O=C(NC12CC3CC(F)(CC(C1)c1ccccc13)C2)N[C@H]1CC[C@H](Oc2ccc(C(=O)O)cc2)CC1", "human sEH (hsEH) (Homo sapiens)", "=", 9.30),
    ("CC12CC3CC(NC(=O)N[C@H]4CC[C@H](Oc5ccc(C(=O)O)cc5)CC4)(CC(C1)c1ccccc13)C2", "human sEH (hsEH) (Homo sapiens)", "=", 9.05),
    ("CC(=O)N1CCC(NC(=O)NC23CC4CC(CC(C2)c2ccccc24)O3)CC1", "human sEH (hsEH) (Homo sapiens)", "<", 5.00),
    ("Cc1ccc(OC(=O)NC23CC4CC(C)(CC(C2)c2ccccc24)C3)cc1", "human sEH (hsEH) (Homo sapiens)", "<", 5.00),
    ("CC12CC3CC(NC(=O)N[C@H]4CC[C@H](Oc5ccc(C(=O)O)cc5)CC4)(CC(C1)c1ccccc13)O2", "human sEH (hsEH) (Homo sapiens)", "=", 7.55),
    ("CC12CC3CC(NC(=S)Nc4ccc(C(F)(F)F)cc4)(CC(C1)c1ccccc13)C2", "human sEH (hsEH) (Homo sapiens)", "=", 6.86),
    ("CC12CC3CC(NC(=O)Nc4ccc(F)c(F)c4F)(CC(C1)c1ccccc13)C2", "human sEH (hsEH) (Homo sapiens)", "=", 9.00),
    ("CC12CC3CC(NC(=O)Nc4ccc(F)c(F)c4F)(CC(C1)c1ccccc13)O2", "human sEH (hsEH) (Homo sapiens)", "=", 7.70),
]

====

assay-target: human LOX-5 (hLOX-5) (Homo sapiens, UniProt P09917)
Sequence (P09917 1-674): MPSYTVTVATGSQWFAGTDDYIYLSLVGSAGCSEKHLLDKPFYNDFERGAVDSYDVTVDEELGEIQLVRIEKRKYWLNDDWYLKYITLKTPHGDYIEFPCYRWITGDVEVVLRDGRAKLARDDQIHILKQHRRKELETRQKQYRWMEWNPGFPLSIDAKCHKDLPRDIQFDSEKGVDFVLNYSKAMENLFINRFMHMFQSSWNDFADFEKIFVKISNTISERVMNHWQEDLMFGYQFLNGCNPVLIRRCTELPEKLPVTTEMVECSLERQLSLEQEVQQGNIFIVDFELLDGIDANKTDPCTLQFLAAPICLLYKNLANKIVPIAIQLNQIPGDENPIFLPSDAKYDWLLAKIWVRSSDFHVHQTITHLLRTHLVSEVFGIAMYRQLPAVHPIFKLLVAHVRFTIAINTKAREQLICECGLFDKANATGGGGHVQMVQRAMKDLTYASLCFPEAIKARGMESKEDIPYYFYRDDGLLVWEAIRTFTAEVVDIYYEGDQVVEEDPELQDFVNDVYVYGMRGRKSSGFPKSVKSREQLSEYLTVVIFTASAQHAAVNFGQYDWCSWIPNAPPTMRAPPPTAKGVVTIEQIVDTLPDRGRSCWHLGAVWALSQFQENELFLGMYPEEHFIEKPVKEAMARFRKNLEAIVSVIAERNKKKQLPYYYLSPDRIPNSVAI
IC50 by entry:
quantity-name: IC50

# chemical-structure, observed
measured = [
    ("O=C(NC12CC3CC(F)(CC(C1)c1ccccc13)C2)N[C@H]1CC[C@H](Oc2ccc(C(=O)O)cc2)CC1", "> 100 µM"),
    ("CC12CC3CC(NC(=O)N[C@H]4CC[C@H](Oc5ccc(C(=O)O)cc5)CC4)(CC(C1)c1ccccc13)C2", "> 100 µM"),
    ("O=C(NC12CC3CC(Cl)(CC(C1)c1ccccc13)C2)N[C@H]1CC[C@H](Oc2ccc(C(=O)O)cc2)CC1", "> 100 µM"),
]
